Below is a list of entries, each paired with its recorded pEC50 value.
Biological target: SST2 (Homo sapiens, UniProt P30874)
Construct: host or cells: PathHunter CHO-K1 SST2 cells
Sequence (P30874 whole entry): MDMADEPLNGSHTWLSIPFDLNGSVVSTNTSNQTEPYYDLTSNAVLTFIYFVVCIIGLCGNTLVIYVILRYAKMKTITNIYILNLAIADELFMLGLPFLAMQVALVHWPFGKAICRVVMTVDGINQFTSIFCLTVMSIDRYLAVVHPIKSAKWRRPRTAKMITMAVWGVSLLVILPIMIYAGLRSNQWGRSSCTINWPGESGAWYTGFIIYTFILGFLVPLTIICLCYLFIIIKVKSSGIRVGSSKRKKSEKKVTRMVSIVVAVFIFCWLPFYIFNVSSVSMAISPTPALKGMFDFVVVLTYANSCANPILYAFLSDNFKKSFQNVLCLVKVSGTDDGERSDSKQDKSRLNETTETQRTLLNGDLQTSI
Experiment: PathHunter CHO-K1 SST2 Internalization Assay
Assay type: cell-based
Conditions: PathHunter CHO-K1 SST2 cells; 90 min at 37 C; luminescence; read-out: Internalization EC50
pEC50: −log10 of the molar value.

>  <compound>
CC[C@H](C)[C@@H]([C@@H](CC(=O)N1CCC[C@H]1[C@H](OC)[C@@H](C)C(=O)N[C@H](C)[C@@H](O)c1ccccc1)OC)N(C)C(=O)[C@@H](NC(=O)[C@H](C(C)C)N(C)C(=O)OCc1ccc(NC(=O)[C@H](C)NC(=O)[C@@H](NC(=O)CCOCCC(=O)N(C)CC(=O)NCCNc2ncc(-c3cc(C)cc(F)c3)c(N3CCC(N)CC3)c2-c2nc3ccc(Cl)cc3[nH]2)C(C)C)c(O[C@@H]2O[C@H](C(=O)NCCS(=O)(=O)O)[C@@H](O)[C@H](O)[C@H]2O)c1)C(C)C

>  <pEC50>
8.36

$$$$
>  <compound>
CC[C@H](C)[C@@H]([C@@H](CC(=O)N1CCC[C@H]1[C@H](OC)[C@@H](C)C(=O)N[C@H](C)[C@@H](O)c1ccccc1)OC)N(C)C(=O)[C@@H](NC(=O)[C@H](C(C)C)N(C)C(=O)OCc1ccc(NC(=O)[C@H](CCCNC(N)=O)NC(=O)[C@@H](NC(=O)[C@@H](CS(=O)(=O)O)NC(=O)CCOCCC(=O)NCCNc2ncc(-c3cc(C)cc(F)c3)c(N3CCC(N)CC3)c2-c2nc3ccc(Cl)cc3[nH]2)C(C)C)cc1C(=O)N1CC(N)C1)C(C)C

>  <pEC50>
8.33

$$$$
>  <compound>
CC[C@H](C)[C@@H]([C@@H](CC(=O)N1CCC[C@H]1[C@H](OC)[C@@H](C)C(=O)N[C@H](C)[C@@H](O)c1ccccc1)OC)N(C)C(=O)[C@@H](NC(=O)[C@H](C(C)C)N(C)C(=O)OCc1ccc(NC(=O)[C@H](CCCNC(N)=O)NC(=O)[C@@H](NC(=O)[C@H](Cc2c[nH]cn2)NC(=O)CCOCCC(=O)NCCNc2ncc(-c3cc(C)cc(F)c3)c(N3CCC(N)CC3)c2-c2nc3ccc(Cl)cc3[nH]2)C(C)C)c(O[C@@H]2C[C@H](C(=O)NCC(=O)O)[C@@H](O)[C@H](O)[C@H]2O)c1)C(C)C

>  <pEC50>
8.35

$$$$
>  <compound>
CC[C@H](C)[C@@H]([C@@H](CC(=O)N1CCC[C@H]1[C@H](OC)[C@@H](C)C(=O)N[C@H](C)[C@@H](O)c1ccccc1)OC)N(C)C(=O)[C@@H](NC(=O)[C@H](C(C)C)N(C)C(=O)OCc1ccc(NC(=O)[C@H](CCCNC(N)=O)NC(=O)[C@@H](NC(=O)CCOCCC(=O)NCCNc2ncc(-c3cc(C)cc(F)c3)c(N3CCC(N)CC3)c2-c2nc3ccc(Cl)cc3[nH]2)C(C)C)c(O[C@@H]2O[C@H](C(=O)NCCC(=O)O)[C@@H](O)[C@H](O)[C@H]2O)c1)C(C)C

>  <pEC50>
8.47

$$$$
>  <compound>
CC[C@H](C)[C@@H]([C@@H](CC(=O)N1CCC[C@H]1[C@H](OC)[C@@H](C)C(=O)N[C@H](C)[C@@H](O)c1ccccc1)OC)N(C)C(=O)[C@@H](NC(=O)C(C(C)C)N(C)C(=O)OCc1ccc(NC(=O)[C@H](CCCNC(N)=O)NC(=O)[C@@H](NC(=O)CCOCCC(=O)NCCNc2ncc(-c3cc(C)cc(F)c3)c(N3CCC(N)CC3)c2-c2nc3ccc(Cl)cc3[nH]2)C(C)C)c(O[C@@H]2O[C@H](C(=O)N3CC(N)C3)[C@@H](O)[C@H](O)[C@H]2O)c1)C(C)C (some centres unmarked)

>  <pEC50>
8.28

$$$$

###

Target: SST2 (Homo sapiens, UniProt P30874)
Construct: host or cells: PathHunter CHO-K1 SST2 cells
Assay: PathHunter CHO-K1 SST2 Internalization Assay
Type: cell-based
Conditions: PathHunter CHO-K1 SST2 cells; 90 min at 37 C; luminescence; read-out: Internalization EC50
pEC50: −log10 of the molar value.

>  <compound>
CC[C@H](C)[C@@H]([C@@H](CC(=O)N1CCC[C@H]1[C@H](OC)[C@@H](C)C(=O)N[C@H](C)[C@@H](O)c1ccccc1)OC)N(C)C(=O)[C@@H](NC(=O)[C@H](C(C)C)N(C)C(=O)OCc1ccc(NC(=O)[C@H](CCCNC(N)=O)NC(=O)[C@@H](NC(=O)C[C@@H](N)C(=O)NCCOCCOCCC(=O)NCCNc2ncc(-c3cc(C)cc(F)c3)c(N3CCC(N)CC3)c2-c2nc3ccc(Cl)cc3[nH]2)C(C)C)c(O[C@@H]2O[C@H](C(=O)O)[C@@H](O)[C@H](O)[C@H]2O)c1)C(C)C [Compound 137]

>  <tgt>
SST2 (Homo sapiens, UniProt P30874)

>  <pEC50>
8.55

$$$$

###

pEC50: recorded values
Target: human somatostatin receptor subtype 2 (Homo sapiens)
Construct: expressed in transfected cells
Test: Functional assay for SSTR2 agonists (HTRF cAMP)
Assay type: cell-based
Settings: CHO-K1 cells stably expressing human SST2; NKH477-stimulated cAMP; 20 min at 37 C; read-out: hSST2 cAMP Avg EC50
Excerpt: General overview: All five SSTR subtypes are Gi coupled G-protein coupled receptors (GPCRs) that lead to decreases in intracellular cyclic AMP (cAMP) when activated by an agonist. Therefore, measurement of intracellular cAMP levels can be used to assess whether compounds of the invention are agonists of SSTR subtypes (John Kelly, Troy Stevens, W. Joseph Thompson, and Roland Seifert, Current Protocols in Pharmacology. 2005, 2.2.1-2.2). One example of an intracellular cAMP assay is described below. […]
pEC50: −log10 of the molar value.

>  <smilesData>
CC[C@H](C)[C@@H]([C@@H](CC(=O)N1CCC[C@H]1[C@H](OC)[C@@H](C)C(=O)N[C@H](C)[C@@H](O)c1ccccc1)OC)N(C)C(=O)[C@@H](NC(=O)[C@H](C(C)C)N(C)C(=O)OCc1ccc(NC(=O)[C@H](CCCNC(N)=O)NC(=O)[C@@H](NC(=O)CCOCCC(=O)NCCNc2ncc(-c3cc(C)cc(F)c3)c(N3CCC(N)CC3)c2-c2nc3ccc(Cl)cc3[nH]2)C(C)C)c(O[C@@H]2O[C@H](C(=O)NCCNC(=O)CCCCCCCCCCCCCCC(=O)O)[C@@H](O)[C@H](O)[C@H]2O)c1)C(C)C

>  <tgt>
human somatostatin receptor subtype 2 (Homo sapiens)

>  <pEC50>
9.32

$$$$
>  <smilesData>
CC[C@H](C)[C@@H]([C@@H](CC(=O)N1CCC[C@H]1[C@H](OC)[C@@H](C)C(=O)N[C@H](C)[C@@H](O)c1ccccc1)OC)N(C)C(=O)[C@@H](NC(=O)[C@H](C(C)C)N(C)C(=O)OCc1ccc(NC(=O)[C@H](CCCNC(N)=O)NC(=O)[C@@H](NC(=O)[C@H](Cc2c[nH]cn2)NC(=O)CCOCCC(=O)NCCNc2ncc(-c3cc(C)cc(F)c3)c(N3CCC(N)CC3)c2-c2nc3ccc(Cl)cc3[nH]2)C(C)C)c(O[C@@H]2C[C@H](C(=O)O)[C@@H](O)[C@H](O)[C@H]2O)c1)C(C)C

>  <tgt>
human somatostatin receptor subtype 2 (Homo sapiens)

>  <pEC50>
10.09

$$$$

###

Entries and their pEC50 values follow.
Biological target: human somatostatin receptor subtype 2 (Homo sapiens, UniProt P30874)
Construct: expressed in transfected cells
Assay: Functional assay for SSTR2 agonists (HTRF cAMP)
Format: cell-based
Conditions: CHO-K1 cells stably expressing human SST2; NKH477-stimulated cAMP; 20 min at 37 C; read-out: hSST2 cAMP Avg EC50
pEC50: −log10 of the molar value.
resultType: pEC50

>  <smilesData>
CC[C@H](C)[C@@H]([C@@H](CC(=O)N1CCC[C@H]1[C@H](OC)[C@@H](C)C(=O)N[C@H](C)[C@@H](O)c1ccccc1)OC)N(C)C(=O)[C@@H](NC(=O)[C@H](C(C)C)N(C)C(=O)OCc1ccc(NC(=O)[C@H](CCCNC(N)=O)NC(=O)[C@@H](NC(=O)CN(C)C(=O)CCOCCC(=O)NCCNc2ncc(-c3cc(C)cc(F)c3)c(N3CCC(N)CC3)c2-c2nc3ccc(Cl)cc3[nH]2)C(C)C)cc1C(=O)NCC(=O)O)C(C)C

>  <resultType>
pEC50

>  <endpointResult>
9.85

$$$$
>  <smilesData>
CC[C@H](C)[C@@H]([C@@H](CC(=O)N1CCC[C@H]1[C@H](OC)[C@@H](C)C(=O)N[C@H](C)[C@@H](O)c1ccccc1)OC)N(C)C(=O)[C@@H](NC(=O)[C@H](C(C)C)N(C)C(=O)OCc1ccc(NC(=O)[C@H](CCCNC(N)=O)NC(=O)[C@@H](NC(=O)[C@H](CCC(=O)O)NC(=O)CCOCCC(=O)NCCNc2ncc(-c3cc(C)cc(F)c3)c(N3CCC(N)CC3)c2-c2nc3ccc(Cl)cc3[nH]2)C(C)C)c(OC)c1)C(C)C

>  <resultType>
pEC50

>  <endpointResult>
10.08

$$$$
>  <smilesData>
CC[C@H](C)[C@@H]([C@@H](CC(=O)N1CCC[C@H]1[C@H](OC)[C@@H](C)C(=O)N[C@H](C)[C@@H](O)c1ccccc1)OC)N(C)C(=O)[C@@H](NC(=O)[C@H](C(C)C)N(C)C(=O)OCc1ccc(NC(=O)[C@H](CCCNC(N)=O)NC(=O)[C@@H](NC(=O)CCOCCOCCOCCOCCC(=O)NCCCNc2ncc(-c3cc(C)cc(F)c3)c(N3CCC(N)CC3)c2-c2nc3ccc(Cl)cc3[nH]2)C(C)C)cc1)C(C)C

>  <resultType>
pEC50

>  <endpointResult>
9.57

$$$$
